For each of the compounds below, state its pKi.
Please note pKi is a logarithmic value: minus log10 of concentration in mol/L. Answer with that number alone.

Prompt line: Hi! What's the reported pKi for NS(=O)(=O)c1cc(-c2nc(-c3ccccn3)no2)cs1 on Carbonic anhydrase 1 (Homo sapiens, UniProt P00915)?
Response line: 7.60

Prompt line: Hi! What's the reported pKi for COc1ccccc1-c1noc(-c2csc(S(N)(=O)=O)c2)n1 on Carbonic anhydrase 1 (Homo sapiens, UniProt P00915)?
Response line: 7.79

Prompt line: Hi! What's the reported pKi for COc1cc(S(N)(=O)=O)ccc1-c1noc(-c2cccnc2)n1 on Carbonic anhydrase 1 (Homo sapiens, UniProt P00915)?
Response line: 5.99

Prompt line: Hi! What's the reported pKi for NS(=O)(=O)c1ccc(-c2noc(-c3cccs3)n2)cc1 on Carbonic anhydrase 1 (Homo sapiens, UniProt P00915)?
Response line: 8.10

Prompt line: Hi! What's the reported pKi for NS(=O)(=O)c1ccc(-c2noc(C3CC3)n2)cc1 on Carbonic anhydrase 1 (Homo sapiens, UniProt P00915)?
Response line: 8.11

Prompt line: Hi! What's the reported pKi for NS(=O)(=O)c1cc(-c2nc(C3CC3)no2)cs1 on Carbonic anhydrase 1 (Homo sapiens, UniProt P00915)?
Response line: 8.03

Prompt line: Hi! What's the reported pKi for COc1cc(S(N)(=O)=O)ccc1-c1noc(-c2ccccc2)n1 on Carbonic anhydrase 1 (Homo sapiens, UniProt P00915)?
Response line: 6.34

Prompt line: Hi! What's the reported pKi for COc1cc(S(N)(=O)=O)ccc1-c1noc(-c2ccsc2)n1 on Carbonic anhydrase 1 (Homo sapiens, UniProt P00915)?
Response line: 5.93

Prompt line: Hi! What's the reported pKi for Cc1nc(-c2csc(S(N)(=O)=O)c2)no1 on Carbonic anhydrase 1 (Homo sapiens, UniProt P00915)?
Response line: 8.09

* * *

tested on: ARPE-19; assay: Antiproliferative activity against human ARPE19 cells at 30 uM after 48 hrs in presence of hypoxic condition by MTT assay; assay type: cell-based; settings: arpe-19, 48 h
property: Activity

structure string | readout value
NS(=O)(=O)c1ccc(-c2noc(-c3cccs3)n2)cc1 | Non-Toxic
NS(=O)(=O)c1cc(-c2nc(-c3ccccn3)no2)cs1 | Non-Toxic
NS(=O)(=O)c1cccc(-c2noc(-c3ccsc3)n2)c1 | Non-Toxic
NS(=O)(=O)c1cc(-c2nc(C3CC3)no2)cs1 | Non-Toxic

* * *

Here's a batch of compounds along with measured Ki for Carbonic anhydrase 9 (Homo sapiens, UniProt Q16790).
Please give a number only; it is taken to be in nM.

Prompt line: Consider the compound shown here: Cc1nc(-c2csc(S(N)(=O)=O)c2)no1 What is its recorded Ki?
Response line: 1.6

Prompt line: Consider the compound shown here: NS(=O)(=O)c1cc(-c2nc(-c3ccccc3)no2)cs1 What is its recorded Ki?
Response line: 0.24

Prompt line: Consider the compound shown here: NS(=O)(=O)c1ccc(-c2noc(-c3ccncc3)n2)cc1 What is its recorded Ki?
Response line: 0.44

Prompt line: Consider the compound shown here: NS(=O)(=O)c1ccc(-c2nc(-c3ccccc3)no2)cc1 What is its recorded Ki?
Response line: 6.7

Prompt line: Consider the compound shown here: COc1cc(S(N)(=O)=O)ccc1-c1noc(-c2cccnc2)n1 What is its recorded Ki?
Response line: 12.1

Prompt line: Consider the compound shown here: COc1cc(S(N)(=O)=O)ccc1-c1noc(-c2ccsc2)n1 What is its recorded Ki?
Response line: 15.9

Prompt line: Consider the compound shown here: COc1cc(S(N)(=O)=O)ccc1-c1noc(-c2ccc(C#N)cc2)n1 What is its recorded Ki?
Response line: 274

Prompt line: Consider the compound shown here: COc1cccc(-c2noc(-c3ccc(S(N)(=O)=O)cc3)n2)c1 What is its recorded Ki?
Response line: 243

Prompt line: Consider the compound shown here: NS(=O)(=O)c1cc(-c2nc(C3CC3)no2)cs1 What is its recorded Ki?
Response line: 0.089

Prompt line: Consider the compound shown here: COc1cc(S(N)(=O)=O)ccc1-c1noc(-c2ccccc2)n1 What is its recorded Ki?
Response line: 13.1
